The entries below come with measured EC50 values attached.
test system: FoxM1A mRNA; test: Upregulation of FoxM1A mRNA by RT-qPCR in human fibroblasts; format: cell-based; details: Fibroblast, 24 hours, Hill fit, read-out: EC50 for increased expression of FoxM1A mRNA including exon 9
Field: numeric (nM). Do not append units.

- SMILES REPR: "CCN1CCC(c2cc(C)c3nc(-c4cc5c(C)nc(C)cn5n4)cc(=O)n3c2)CC1"
  EC50 [nM]: 246
- SMILES REPR: "CCc1nc(C)cn2nc(-c3cc(=O)n4cc(C5=CCNCC5)cc(C)c4n3)cc12"
  EC50 [nM]: 16
- SMILES REPR: "Cc1cn2nc(-c3cc(=O)n4cc(N5CCN(C)CC5)ccc4n3)cc2c(C)n1"
  EC50 [nM]: 1210

Now, please, on to the next compound.
Q. # get_value(readout='EC50', item= "Cc1cn2nc(-c3cc(=O)n4cc(N5CCNCC5)ccc4n3)cc2c(C)n1" )
A. 68

###

test system: FoxM1B/C mRNA; assay: Downregulation of FoxM1B/C mRNA by RT-qPCR in human fibroblasts; format: cell-based; conditions: Fibroblast, 24 hours, Hill fit, read-out: EC50 for decline of FoxM1B/C mRNAs lacking exon 9
RECORDED METRIC: pEC50
The meaning of pEC50 here: minus log10 of the concentration in molar units.

Examples from the recorded data:
- MOLECULE: "CCN1CCC(c2cc(C)c3nc(-c4cc5c(C)nc(C)cn5n4)cc(=O)n3c2)CC1 [Compound 1]"
  pEC50: 6.14
- MOLECULE: "Cc1cn2nc(-c3cc(=O)n4cc(N5CCNCC5)ccc4n3)cc2c(C)n1 [Compound 4]"
  pEC50: 6.98
- MOLECULE: "Cc1cn2nc(-c3cc(=O)n4cc(N5CCN(C)CC5)ccc4n3)cc2c(C)n1 [Compound 3]"
  pEC50: 5.45

Now, please, on to the next molecule.
Q. # get_value(readout='pEC50', item= CCc1nc(C)cn2nc(-c3cc(=O)n4cc(C5=CCNCC5)cc(C)c4n3)cc12 [Compound 2] )
A. 7.85
